- system_name: DDX21 (UniProt Q9NR30)
- Sequence: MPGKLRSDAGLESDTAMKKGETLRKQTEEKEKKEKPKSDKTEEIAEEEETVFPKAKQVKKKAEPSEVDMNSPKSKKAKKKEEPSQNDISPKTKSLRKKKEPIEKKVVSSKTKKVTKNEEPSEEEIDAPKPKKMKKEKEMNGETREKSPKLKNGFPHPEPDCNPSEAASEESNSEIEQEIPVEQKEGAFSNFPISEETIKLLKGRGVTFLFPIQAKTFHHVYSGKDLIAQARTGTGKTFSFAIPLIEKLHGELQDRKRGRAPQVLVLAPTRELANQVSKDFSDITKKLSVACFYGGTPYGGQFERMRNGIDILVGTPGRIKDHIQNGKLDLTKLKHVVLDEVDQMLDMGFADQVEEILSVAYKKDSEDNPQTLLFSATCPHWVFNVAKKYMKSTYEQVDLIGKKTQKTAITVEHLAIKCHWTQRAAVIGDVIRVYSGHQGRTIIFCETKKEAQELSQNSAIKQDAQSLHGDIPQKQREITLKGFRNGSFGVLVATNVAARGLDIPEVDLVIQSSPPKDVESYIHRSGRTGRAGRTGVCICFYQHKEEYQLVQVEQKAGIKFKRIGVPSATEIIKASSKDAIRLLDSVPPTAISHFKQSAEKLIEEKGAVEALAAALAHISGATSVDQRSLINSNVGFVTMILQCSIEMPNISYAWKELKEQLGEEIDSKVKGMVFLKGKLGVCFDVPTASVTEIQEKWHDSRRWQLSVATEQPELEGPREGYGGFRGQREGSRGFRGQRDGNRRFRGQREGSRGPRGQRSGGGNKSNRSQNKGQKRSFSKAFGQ
- protocol_notes: Kd (EC50 corrected by depletion factor)
measure: pKd
Field pKd (float): negative decimal logarithm of the concentration in molar.

Task item: pKd lookup needed for `CUGUCCU` , thanks.
Reply: 7.35

====

sequences and their reported pKd
- system_name: HNRNPDL (UniProt O14979)
- Sequence: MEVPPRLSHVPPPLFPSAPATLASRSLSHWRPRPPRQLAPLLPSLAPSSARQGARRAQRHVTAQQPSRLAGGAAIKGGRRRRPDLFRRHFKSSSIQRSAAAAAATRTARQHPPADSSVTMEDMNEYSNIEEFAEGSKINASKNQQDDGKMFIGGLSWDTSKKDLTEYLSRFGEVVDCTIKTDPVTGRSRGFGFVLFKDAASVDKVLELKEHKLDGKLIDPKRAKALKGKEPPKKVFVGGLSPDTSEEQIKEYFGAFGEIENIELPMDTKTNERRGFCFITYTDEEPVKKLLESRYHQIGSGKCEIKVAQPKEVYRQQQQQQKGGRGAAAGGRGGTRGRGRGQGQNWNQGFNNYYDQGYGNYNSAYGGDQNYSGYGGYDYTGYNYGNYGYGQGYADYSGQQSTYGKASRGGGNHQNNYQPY
- protocol_notes: Kd (EC50 corrected by depletion factor)
Field pKd (float): negative decimal logarithm of the concentration in molar.

{"biosequence": "AAUAAA", "system_name": "HNRNPDL (UniProt O14979)", "pKd": 6.82}

Turning now to a further record.
Task item: pKd lookup needed for `UAUUUAU` , thanks.
Reply: 5.63

====

- system_name: ZGPAT (UniProt Q8N5A5)
- Sequence: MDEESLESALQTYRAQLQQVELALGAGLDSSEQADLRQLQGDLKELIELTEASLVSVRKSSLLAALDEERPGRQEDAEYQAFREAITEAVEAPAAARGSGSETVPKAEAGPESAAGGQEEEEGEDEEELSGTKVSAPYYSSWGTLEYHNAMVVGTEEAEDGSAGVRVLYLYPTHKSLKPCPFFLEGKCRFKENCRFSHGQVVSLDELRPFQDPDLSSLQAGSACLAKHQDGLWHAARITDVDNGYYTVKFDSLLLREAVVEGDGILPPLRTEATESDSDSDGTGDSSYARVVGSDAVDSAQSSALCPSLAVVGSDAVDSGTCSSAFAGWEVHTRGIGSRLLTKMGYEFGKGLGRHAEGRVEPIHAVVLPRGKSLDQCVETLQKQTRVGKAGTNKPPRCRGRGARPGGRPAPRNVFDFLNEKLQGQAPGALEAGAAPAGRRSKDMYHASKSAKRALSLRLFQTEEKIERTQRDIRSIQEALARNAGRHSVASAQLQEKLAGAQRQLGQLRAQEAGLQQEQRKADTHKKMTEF
- protocol_notes: Kd (EC50 corrected by depletion factor)
measure: pKd
Field pKd (float): negative decimal logarithm of the concentration in molar.

Task item: pKd lookup needed for `AAUAAA` , thanks.
Reply: 5.36

====

- system_name: PRPF31 (UniProt Q8WWY3)
- Sequence: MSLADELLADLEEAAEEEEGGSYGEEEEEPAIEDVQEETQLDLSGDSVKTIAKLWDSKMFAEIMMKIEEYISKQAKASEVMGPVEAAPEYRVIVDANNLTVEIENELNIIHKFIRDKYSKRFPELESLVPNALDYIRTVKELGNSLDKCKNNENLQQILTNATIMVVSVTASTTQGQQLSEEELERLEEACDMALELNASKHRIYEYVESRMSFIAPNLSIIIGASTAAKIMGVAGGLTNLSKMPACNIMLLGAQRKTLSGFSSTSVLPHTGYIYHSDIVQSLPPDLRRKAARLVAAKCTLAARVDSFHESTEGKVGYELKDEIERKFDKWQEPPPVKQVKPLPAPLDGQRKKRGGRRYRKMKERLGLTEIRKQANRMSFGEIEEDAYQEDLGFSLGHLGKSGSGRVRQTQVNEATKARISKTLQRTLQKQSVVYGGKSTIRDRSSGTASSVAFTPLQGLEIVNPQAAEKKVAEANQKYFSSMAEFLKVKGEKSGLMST
- protocol_notes: EC50 of free RNA motif oligo competing protein binding to immobilised probe
measure: EC50
Form entry: enter the amount, then its unit.

Task item: EC50 lookup needed for `UAUUUAU` , thanks.
Reply: 5.84 µM

====

- system_name: RBMS1 (UniProt P29558)
- Sequence: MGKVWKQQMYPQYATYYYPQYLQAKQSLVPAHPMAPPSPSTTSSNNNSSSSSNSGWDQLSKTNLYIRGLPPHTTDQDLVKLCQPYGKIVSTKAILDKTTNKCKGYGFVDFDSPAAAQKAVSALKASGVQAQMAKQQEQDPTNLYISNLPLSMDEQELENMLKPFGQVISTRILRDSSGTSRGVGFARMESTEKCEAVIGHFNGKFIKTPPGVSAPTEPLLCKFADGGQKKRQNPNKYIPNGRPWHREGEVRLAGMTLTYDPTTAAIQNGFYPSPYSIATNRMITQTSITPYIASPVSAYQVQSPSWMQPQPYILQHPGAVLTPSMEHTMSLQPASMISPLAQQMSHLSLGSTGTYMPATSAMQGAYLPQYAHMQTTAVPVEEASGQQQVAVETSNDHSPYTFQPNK
- protocol_notes: EC50 of free RNA motif oligo competing protein binding to immobilised probe
measure: EC50 (nM)
API: value field is a number in nM; no unit string.

{"biosequence": "AAUAAA", "quantitative_result": 1570}

Turning now to a further record.
Task item: EC50 lookup needed for `UAUUUAU` , thanks.
Reply: 458

====

- system_name: DHX36 (UniProt Q9H2U1)
- Sequence: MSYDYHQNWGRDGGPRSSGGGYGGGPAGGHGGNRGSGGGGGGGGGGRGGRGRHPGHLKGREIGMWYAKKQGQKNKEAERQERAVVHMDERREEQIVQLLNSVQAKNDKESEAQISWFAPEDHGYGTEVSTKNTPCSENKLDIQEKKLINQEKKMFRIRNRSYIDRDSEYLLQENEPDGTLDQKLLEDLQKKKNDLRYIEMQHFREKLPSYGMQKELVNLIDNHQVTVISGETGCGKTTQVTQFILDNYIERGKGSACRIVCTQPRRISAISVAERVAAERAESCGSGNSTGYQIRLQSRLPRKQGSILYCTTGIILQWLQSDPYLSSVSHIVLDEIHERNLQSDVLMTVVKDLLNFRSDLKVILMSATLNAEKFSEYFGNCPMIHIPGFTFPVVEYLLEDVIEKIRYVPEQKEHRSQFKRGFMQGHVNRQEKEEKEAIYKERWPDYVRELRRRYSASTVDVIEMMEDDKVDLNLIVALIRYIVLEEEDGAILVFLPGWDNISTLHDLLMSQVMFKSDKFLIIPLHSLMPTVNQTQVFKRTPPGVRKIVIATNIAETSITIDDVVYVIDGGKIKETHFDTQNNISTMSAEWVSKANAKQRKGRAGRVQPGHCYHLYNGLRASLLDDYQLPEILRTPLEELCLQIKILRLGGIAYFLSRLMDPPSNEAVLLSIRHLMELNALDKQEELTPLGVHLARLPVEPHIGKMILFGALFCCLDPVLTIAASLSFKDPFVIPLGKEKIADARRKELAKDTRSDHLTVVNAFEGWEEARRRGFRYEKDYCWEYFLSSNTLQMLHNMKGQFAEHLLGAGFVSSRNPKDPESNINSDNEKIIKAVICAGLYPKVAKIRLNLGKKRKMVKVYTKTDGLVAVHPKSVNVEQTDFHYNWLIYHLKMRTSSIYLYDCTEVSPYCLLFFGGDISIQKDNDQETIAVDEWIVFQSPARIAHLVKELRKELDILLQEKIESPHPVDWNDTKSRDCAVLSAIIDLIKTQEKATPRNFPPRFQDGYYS
- protocol_notes: Kd (EC50 corrected by depletion factor)
measure: Kd (nM)
API: value field is a number in nM; no unit string.

{"biosequence": "CUGUCCU", "reading_unit": "nM", "Kd": 1850}
{"biosequence": "AAUAAA", "reading_unit": "nM", "Kd": 573}

Turning now to a further record.
Task item: Kd lookup needed for `UAUUUAU` , thanks.
Reply: 632
